Test system: NCI-H1975
EXPERIMENTAL PROTOCOL: Cytotoxicity against human NCI-H1975 cells assessed as cell growth inhibition measured after 72 hrs by MTT assay
Assay type: functional, cell-based
SETTINGS: NCI-H1975, 72 h
pIC50: −log10 of the molar value.
MEASUREMENT NAME: pIC50

c1ccc2cc(Cn3cc[n+](CCCn4cc[n+](Cc5ccc6ccccc6c5)c4)c3)ccc2c1 < 4.52
c1ccc2cc(Cn3cc[n+](CCn4cc[n+](Cc5ccc6ccccc6c5)c4)c3)ccc2c1 < 4.52
c1ccc2cc(Cn3cc[n+](CCCCCCCCCCCCn4cc[n+](Cc5ccc6ccccc6c5)c4)c3)ccc2c1 > 6.00
c1ccc2cc(Cn3cc[n+](Cn4cc[n+](Cc5ccc6ccccc6c5)c4)c3)ccc2c1 < 4.52
